target: Human TRPC6 (Homo sapiens); construct: expressed in transfected cells; experiment: Evaluation of TRPC6 channel inhibitory activity (1), FLIPR Calcium 5 Assay Kit, OAG stimulation (Compound Nos. 1-1293); format: cell-based; settings: Human TRPC6 stably-expressing cells, OAG 30 μM, FLIPR Calcium 5 Assay Kit; read-out: Inhibitory activity (pIC50 class) (converted)
Sequence (Q9Y210 whole entry): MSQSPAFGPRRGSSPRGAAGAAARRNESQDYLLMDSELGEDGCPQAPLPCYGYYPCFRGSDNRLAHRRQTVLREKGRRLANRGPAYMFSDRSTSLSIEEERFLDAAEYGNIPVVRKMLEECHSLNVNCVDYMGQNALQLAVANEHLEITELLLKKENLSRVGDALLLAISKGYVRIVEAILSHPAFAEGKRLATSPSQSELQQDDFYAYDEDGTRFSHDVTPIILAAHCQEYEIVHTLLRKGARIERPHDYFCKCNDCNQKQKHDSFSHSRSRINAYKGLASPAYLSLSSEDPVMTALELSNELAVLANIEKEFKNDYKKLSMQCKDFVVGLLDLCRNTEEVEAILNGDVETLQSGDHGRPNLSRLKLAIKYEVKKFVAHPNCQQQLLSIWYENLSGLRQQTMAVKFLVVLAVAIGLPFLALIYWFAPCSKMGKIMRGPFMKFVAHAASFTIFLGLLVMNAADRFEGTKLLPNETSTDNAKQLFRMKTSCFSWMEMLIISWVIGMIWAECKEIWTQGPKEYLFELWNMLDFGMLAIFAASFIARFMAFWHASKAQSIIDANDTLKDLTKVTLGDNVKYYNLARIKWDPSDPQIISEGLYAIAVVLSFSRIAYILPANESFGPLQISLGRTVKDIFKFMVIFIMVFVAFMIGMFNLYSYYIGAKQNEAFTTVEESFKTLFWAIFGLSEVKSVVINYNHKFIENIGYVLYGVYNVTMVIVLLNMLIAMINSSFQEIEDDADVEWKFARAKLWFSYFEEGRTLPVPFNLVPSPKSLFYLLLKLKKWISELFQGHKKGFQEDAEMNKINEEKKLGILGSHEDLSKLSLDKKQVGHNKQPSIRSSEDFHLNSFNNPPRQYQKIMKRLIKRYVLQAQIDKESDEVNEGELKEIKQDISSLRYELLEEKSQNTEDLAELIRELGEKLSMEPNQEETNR
Quick reference for IC50 among some compounds

{"compound": "Cc1cccc(-c2cc(Oc3cc(C#N)ccc3-c3ncc(CN)cn3)n(C)n2)n1 [compound 650]", "system under test": "Human TRPC6 (Homo sapiens)", "IC50": "10 to 1000 nM"}
{"compound": "Cc1nc(-c2cncc(F)c2)cn1Cc1cc(C#N)ccc1-c1ncc(CN)cn1 [compound 1192]", "system under test": "Human TRPC6 (Homo sapiens)", "IC50": "> 1000 nM"}
{"compound": "Cn1nc(C(F)(F)F)cc1Oc1cc(C#N)ccc1-c1ncc([C@@H](F)CN)cn1 [compound 904]", "system under test": "Human TRPC6 (Homo sapiens)", "IC50": "< 10 nM"}
{"compound": "CN(C)c1cc(Cc2cc(C#N)ccc2-c2ncc(CCN)cn2)n(C)n1 [compound 1216]", "system under test": "Human TRPC6 (Homo sapiens)", "IC50": "10 to 1000 nM"}
{"compound": "Cc1cc(Oc2cc(C#N)ccc2-c2ncc(CN)cn2)cc(NC(C)C)n1 [compound 644]", "system under test": "Human TRPC6 (Homo sapiens)", "IC50": "< 10 nM"}
{"compound": "Cc1nc(Oc2cc(C#N)ccc2-c2ccc(CCN)cc2)cc(-c2ccccc2O)n1 [Compound 22]", "system under test": "Human TRPC6 (Homo sapiens)", "IC50": "10 to 1000 nM"}
{"compound": "CC(C)(C)n1nc(C2CC2)cc1Oc1cc(C#N)ccc1-c1ccc(C(O)CN)cn1 (stereo not drawn) [compound 368]", "system under test": "Human TRPC6 (Homo sapiens)", "IC50": "10 to 1000 nM"}
{"compound": "Cc1cc(Oc2cc(C#N)ccc2-c2ccc(C[C@@H](N)C(=O)O)cn2)cc(N2CCOCC2)n1 [compound 614]", "system under test": "Human TRPC6 (Homo sapiens)", "IC50": "> 1000 nM"}
{"compound": "CN(C)C(=O)CNC(C)(C)Cc1ccc(-c2ccc(C#N)cc2Oc2cc(-c3ccccn3)nn2C)nc1 [compound 839]", "system under test": "Human TRPC6 (Homo sapiens)", "IC50": "> 1000 nM"}
{"compound": "Cc1nc(Oc2cc(F)ccc2-c2ccc(CN)cn2)cc(N2CCOCC2)n1 [compound 1003]", "system under test": "Human TRPC6 (Homo sapiens)", "IC50": "10 to 1000 nM"}
{"compound": "Cc1c(Oc2cc(C#N)ccc2-c2ncc(CN)cn2)cnn1CC(F)(F)F [compound 837]", "system under test": "Human TRPC6 (Homo sapiens)", "IC50": "10 to 1000 nM"}
{"compound": "Cn1nc(C(F)F)cc1Oc1cc(C#N)ccc1-c1ncc(CCN)cn1 [compound 384]", "system under test": "Human TRPC6 (Homo sapiens)", "IC50": "< 10 nM"}
{"compound": "Cn1nc(C(C)(C)C)cc1C(=O)c1cc(C#N)ccc1-c1ncc(CN)cn1 [Compound No. 1030]", "system under test": "Human TRPC6 (Homo sapiens)", "IC50": "< 10 nM"}
{"compound": "Cc1ccccc1-c1cn(Cc2cc(C#N)ccc2-c2ccc(CCN)cn2)cn1 [compound 1145]", "system under test": "Human TRPC6 (Homo sapiens)", "IC50": "< 10 nM"}
{"compound": "CN(C)c1cc(Oc2cc(C#N)ccc2-c2ccc(CN)cn2)n(C)n1 [compound 623]", "system under test": "Human TRPC6 (Homo sapiens)", "IC50": "< 10 nM"}
{"compound": "N#Cc1ccc(-c2ncc(CN)cn2)c(Oc2cc(Cl)nnc2N2CCCCC2)c1 [compound 816]", "system under test": "Human TRPC6 (Homo sapiens)", "IC50": "> 1000 nM"}
{"compound": "Cc1cc(Oc2cc(C#N)ccc2-c2ncc([C@H](O)CN)cn2)cc(N2CCOCC2)n1 [compound 430]", "system under test": "Human TRPC6 (Homo sapiens)", "IC50": "< 10 nM"}
{"compound": "COCCOc1cc(Oc2cc(C#N)ccc2-c2ncc(CN)cn2)nc(C)n1 [compound 843]", "system under test": "Human TRPC6 (Homo sapiens)", "IC50": "> 1000 nM"}
{"compound": "N#Cc1ccc(-c2ncc(CN)cn2)c(Oc2cncc(N3CCOCC3)c2)c1 [compound 918]", "system under test": "Human TRPC6 (Homo sapiens)", "IC50": "> 1000 nM"}
{"compound": "Cn1nc(-c2ncccn2)cc1Oc1cc(C#N)ccc1-c1ccc([C@H](O)CN)cn1 [compound 540]", "system under test": "Human TRPC6 (Homo sapiens)", "IC50": "> 1000 nM"}
{"compound": "Cn1nc(C2CC2)cc1Oc1cc(F)ccc1-c1ncc(CN)cn1 [compound 1015]", "system under test": "Human TRPC6 (Homo sapiens)", "IC50": "10 to 1000 nM"}
{"compound": "Cn1nc(-c2cccnn2)cc1Oc1cc(C#N)ccc1-c1ncc(CN)cn1 [compound 934]", "system under test": "Human TRPC6 (Homo sapiens)", "IC50": "10 to 1000 nM"}
{"compound": "Cn1nc(C2CC2)cc1Oc1cc(C#N)ccc1-c1ccc(CN2CCNCC2=O)cn1 [compound 778]", "system under test": "Human TRPC6 (Homo sapiens)", "IC50": "> 1000 nM"}
{"compound": "Cn1nc(N2CCOCC2)cc1Oc1cc(C#N)ccc1-c1ccc(CN)cn1 [compound 773]", "system under test": "Human TRPC6 (Homo sapiens)", "IC50": "< 10 nM"}
{"compound": "N#Cc1ccc(-c2ccc(C(O)CN)cc2)c(Oc2cnnc(-c3ccccc3)c2)c1 (stereo not drawn) [Compound 82]", "system under test": "Human TRPC6 (Homo sapiens)", "IC50": "< 10 nM"}
{"compound": "Cn1nc(C2CC2)cc1Oc1cc(C#N)ccc1-c1ccc(C(N)CO)cn1 (stereo not drawn) [compound 421]", "system under test": "Human TRPC6 (Homo sapiens)", "IC50": "10 to 1000 nM"}
{"compound": "Cc1cnc(N2CCOCC2)cc1Oc1cc(C#N)ccc1-c1ncc(CCN)cn1 [compound 902]", "system under test": "Human TRPC6 (Homo sapiens)", "IC50": "10 to 1000 nM"}
{"compound": "N#Cc1ccc(-c2ccc(CCN)cc2)c(Oc2cnnc(-c3ccccc3)c2)c1 [Compound 69]", "system under test": "Human TRPC6 (Homo sapiens)", "IC50": "< 10 nM"}
{"compound": "Cc1nc(OCCC(C)(C)C)cc(Oc2cc(C#N)ccc2-c2ccc(CCN)cc2)n1 [Compound 42]", "system under test": "Human TRPC6 (Homo sapiens)", "IC50": "> 1000 nM"}
{"compound": "CC(C)n1nc(-c2ccccc2)cc1Oc1cc(C#N)ccc1-c1ncc(CCN)cn1 [compound 381]", "system under test": "Human TRPC6 (Homo sapiens)", "IC50": "< 10 nM"}
{"compound": "Cn1nc(-c2ccccn2)cc1Oc1cc(C#N)cnc1-c1ncc(CN)cn1 [compound 1287]", "system under test": "Human TRPC6 (Homo sapiens)", "IC50": "> 1000 nM"}
{"compound": "Cc1nc(CN2CCCCC2)cn1Cc1cc(C#N)ccc1-c1ncc(CCN)cn1 [Compound No. 1179]", "system under test": "Human TRPC6 (Homo sapiens)", "IC50": "> 1000 nM"}
{"compound": "Cc1nc(Oc2cc(C#N)ccc2-c2ccc([C@H](O)CN)cn2)cc(N2C[C@@H](C)O[C@@H](C)C2)n1 [compound 523]", "system under test": "Human TRPC6 (Homo sapiens)", "IC50": "10 to 1000 nM"}

---

Biological target: Human TRPC6 (Homo sapiens)
Construct: expressed in transfected cells
Test: Evaluation of TRPC6 channel inhibitory activity (1), FLIPR Calcium 5 Assay Kit, OAG stimulation (Compound Nos. 1-1293)
Format: cell-based
Details: Human TRPC6 stably-expressing cells, OAG 30 μM, FLIPR Calcium 5 Assay Kit; read-out: Inhibitory activity (pIC50 class) (converted)
Method: Evaluation of TRPC6 Channel Inhibitory Activity (1) (Compound Nos. 1-1293) In order to investigate TRPC6 channel inhibitory activity of the compounds, evaluation was conducted using FLIPR® Calcium 5 Assay Kit (Molecular Devices) in accordance with the following procedure. […] A volume of 12.5 μL of a compound solution was added into each well while the fluorescence was measured with FLIPR tetra. […]

{"molecule": "N#Cc1ccc(-c2ncc(CCN)cn2)c(Cn2cc(N3CCOCC3)cn2)c1", "IC50": "10 to 1000 nM"}
{"molecule": "Cn1nc(-c2ccccc2)cc1Oc1cc(C#N)ccc1-c1cnc(CCN)nc1", "IC50": "< 10 nM"}
{"molecule": "Cc1nc(Oc2cc(C#N)ccc2-c2ccc(C[C@H](N)C(N)=O)cc2)cc(-c2ccccc2)n1", "IC50": "10 to 1000 nM"}
{"molecule": "Cn1nc(-c2ccccc2)cc1Oc1cc(C#N)ccc1-c1ccc(CCN)nc1", "IC50": "< 10 nM"}
